Molecular target: Prothrombin (Homo sapiens, UniProt P00734)
Assay: Enzyme Inhibition Assay
A collection of molecules and their measured IC50
Quick note: give the figure in nM, leave out the unit.

- Molecule: "CN[C@H](Cc1ccccc1)C(=O)N1CCC[C@H]1C(=O)NC(CCCN=C(N)N)C(=O)c1nccs1 (some centres undefined)"
  Assayed Target: "Prothrombin (Homo sapiens, UniProt P00734)"
  Numeric Readout: 19

# ---- query molecule ----
Form field IC50, entry CN[C@H](Cc1ccccc1)C(=O)N1CCC[C@H]1C(=O)N[C@@H](C(=O)c1nc2ccccc2s1)C1CCC(N)CC1 (some centres undefined) : 1900

====

Molecular target: Prothrombin (Homo sapiens)
Assay: Enzyme Inhibition Assay
log10 of Ki reference
Field: value | Transform: log10 | Quantity: Ki | Unit: µM

Below, each entry is followed by its recorded log10 of Ki result.
- Molecule: "CN[C@H](Cc1ccccc1)C(=O)N1CCC[C@H]1C(=O)NC(CCCN=C(N)N)C(=O)c1nccs1 (some centres not stated)"
  Assayed Target: "Prothrombin (Homo sapiens)"
  log10 of Ki: -2.68
- Molecule: "CN[C@H](Cc1ccccc1)C(=O)N1CCC[C@H]1C(=O)NC(CCCN=C(N)N)C(=O)c1nccn1C (some centres not stated)"
  Assayed Target: "Prothrombin (Homo sapiens)"
  log10 of Ki: -0.70
- Molecule: "CN[C@H](Cc1ccccc1)C(=O)N1CCC[C@H]1C(=O)NC(CCCN=C(N)N)C(=O)c1ccccn1 (some centres not stated)"
  Assayed Target: "Prothrombin (Homo sapiens)"
  log10 of Ki: -1.07
- Molecule: "CN[C@H](Cc1ccccc1)C(=O)N1CCC[C@H]1C(=O)N[C@H](C(=O)c1nc2ccccc2s1)C1CCC(CN)CC1 (some centres not stated)"
  Assayed Target: "Prothrombin (Homo sapiens)"
  log10 of Ki: -0.04
- Molecule: "CN[C@H](Cc1ccccc1)C(=O)N1CCC[C@H]1C(=O)N[C@@H](C(=O)c1nc2ccccc2s1)C1CCC(N)CC1 (some centres not stated)"
  Assayed Target: "Prothrombin (Homo sapiens)"
  log10 of Ki: -0.96
- Molecule: "CCS(=O)(=O)N[C@H](Cc1ccccc1)C(=O)N1CCC[C@H]1C(=O)N[C@@H](C(=O)c1nc2ccccc2s1)C1CCC(N)CC1 (some centres not stated)"
  Assayed Target: "Prothrombin (Homo sapiens)"
  log10 of Ki: -1.28

Entry NC(N)=NCCCC(NC(=O)[C@@H]1CCCN1C(=O)C1(O)c2ccccc2-c2ccccc21)C(=O)c1nc2ccccc2s1 (some centres not stated) — recorded log10 of Ki = -2.51

====

Target: Prothrombin (Homo sapiens)
Experiment: Enzyme Inhibition Assay
This listing pairs molecules with measured IC50.

- Molecule: "CN[C@H](Cc1ccccc1)C(=O)N1CCC[C@H]1C(=O)NC(CCCN=C(N)N)C(=O)c1ccccn1 (some centres undefined)"
  IC50: "930 nM"
- Molecule: "CN[C@H](Cc1ccccc1)C(=O)N1CCC[C@H]1C(=O)N[C@H](C(=O)c1nc2ccccc2s1)C1CCC(CN)CC1 (some centres undefined)"
  IC50: "17000 nM"
- Molecule: "CNCCCC[C@H](NC(=O)[C@@H]1CCCN1C(=O)[C@@H](Cc1ccccc1)NC)C(=O)c1nc2ccccc2s1"
  IC50: "> 1000 nM"

Consider now this further molecule.
In plain terms, CN[C@H](Cc1ccccc1)C(=O)N1CCC[C@H]1C(=O)N[C@@H](Cc1ccccc1)C(=O)c1nc2ccccc2s1 has a documented IC50 of > 1000 nM
